// reported IC50 for each item listed
Tested on: pSTAT6 in BEAS-2B human cell line
Assay: Inhibition of IL-13 induced pSTAT6 in BEAS
Format: cell-based
Conditions: Homo sapiens, BEAS-2B, 0.5 h; IL-13 trigger, 30 min; parent compound
ENDPOINT LABEL: IC50

structure_notation=CCOC(=O)C1(C)CCN(CCNC(=O)c2nn(-c3cc4c(cc3OC)NCCO4)c3cc(-c4cnn5cccnc45)ncc23)CC1 endpoint_result="5.01 to 50.1 nM"
structure_notation=COc1cc2c(cc1-n1nc(C(=O)NCCN3CCC(C(=O)OC(C)C)CC3)c3cnc(-c4cnn5cccnc45)cc31)OCCN2 endpoint_result="≤ 5.01 nM"
structure_notation=CCOC(=O)[C@@H]1C[C@@H]2CN(CCNC(=O)c3nn(-c4cc5c(cc4OC)NCCO5)c4cc(-c5cnn6cccnc56)ncc34)C[C@@H]2C1 endpoint_result="5.01 to 50.1 nM"
structure_notation=COc1cc2c(cc1-n1nc(C(=O)NCCN3CCC(C(=O)OC4CCOCC4)CC3)c3cnc(-c4cnn5cccnc45)cc31)OCCN2 endpoint_result="≤ 5.01 nM"
structure_notation=COc1cc2c(cc1-n1nc(C(=O)NCCCN3CCC(C(=O)OC4CCN(C)CC4)CC3)c3cnc(-c4cnn5cccnc45)cc31)OCCN2 endpoint_result="5.01 to 50.1 nM"
structure_notation=CCOC(=O)C1CCN(CCNC(=O)c2nn(-c3cc4c(cc3OC)NCCC4)c3cc(-c4cnn5cccnc45)ncc23)CC1 endpoint_result="≤ 5.01 nM"
